# Tested on: RXF 393 renal
# Assay Summary: NCI tumour cell line growth inhibition, 48 h
Consider the following compounds; for each one, report its TGI.
All answers are understood in µM, so give the number only.

Asked: Name the recorded TGI for "Cc1cc(NS(=O)(=O)c2ccc(NC(=O)c3cccc4cc5ccccc5nc34)cc2)no1" .
Given back: 29.1

Asked: // same read-out, input: "Cc1cc(O)ccc1O"
Given back: 29.1

Asked: // same read-out, input: CC(=O)Nc1ccc(S(=O)(=O)[N-]C2C(=O)c3ccccc3C(=O)C2[n+]2ccccc2)cc1 (centres undefined)
Given back: 30.4

---

Consider the following molecules; for each one, report its TGI.
# System: MOLT-4 leukemia
# Assay Summary: NCI tumour cell line growth inhibition, 48 h

Asked: Name the recorded TGI for "O=C1/C(=C/c2ccc(Cl)cc2)CN(Cc2cn(CCNc3ccnc4cc(Cl)ccc34)nn2)C/C1=C\c1ccc(Cl)cc1" .
Given back: > 100 µM

Asked: // same read-out, input: "O=c1[nH]ccc2nc(-c3ccc(CN4CCC(c5nc(-c6ccccn6)n[nH]5)CC4)cc3)c(-c3ccccc3)cc12"
Given back: 4.67 µM

Asked: // same read-out, input: "O=C(N/N=C/C=C/c1ccc([N+](=O)[O-])o1)c1ccc(Br)s1"
Given back: > 100 µM

Asked: // same read-out, input: CC(=O)N1C(C(=O)NNc2ccccc2)CSC1c1ccccc1 (stereo unspecified)
Given back: > 100 µM

Asked: // same read-out, input: COc1cc(S(=O)(=O)Nc2ccc(-c3csc(N4C(=O)C(C)SC4c4ccccc4O)n3)cc2)ccc1Cl (stereo unspecified)
Given back: > 100 µM

Asked: // same read-out, input: "COc1ccc2c(c1)C(=O)/C(=C/c1ccc([N+](=O)[O-])s1)O2"
Given back: > 33.7 µM

Asked: // same read-out, input: NC(CCCCN=Cc1nc(-c2ccccc2)oc1O)C(=O)O (stereo unspecified)
Given back: > 100 µM

Asked: // same read-out, input: "COc1cc(C(=O)N2CCN(c3ccccc3OC)CC2)c(N)cc1OCc1ccccc1"
Given back: 53.6 µM

Asked: // same read-out, input: "O=C(CC/C(CC(=O)c1ccc(Cl)cc1)=N/O)Nc1ccc(Cl)c(Cl)c1"
Given back: > 100 µM

Asked: // same read-out, input: CC(=O)NC(CCCCNC(=O)OC(C)(C)C)C(=O)O (stereo unspecified)
Given back: > 100 µM

Asked: // same read-out, input: "COc1cc(C=Nc2ccc(S(N)(=O)=O)cc2)cc(OC)c1"
Given back: > 50 µM

Asked: // same read-out, input: CC1(C)CCCCCC(C)(CCCCCCCCCCCO)C1=O (stereo unspecified)
Given back: 46.3 µM

Asked: // same read-out, input: CN(C)CS/C(N)=N\C(O)C(Cl)(Cl)Cl (stereo unspecified)
Given back: > 100 µM

Asked: // same read-out, input: "NC(N)=N/N=C(/c1ccccc1)c1ccc(Cl)cc1"
Given back: > 100 µM

Asked: // same read-out, input: "Cc1nc2c(n1CCC(C)C)C(=O)c1ccccc1C2=O"
Given back: 76.2 µM

Asked: // same read-out, input: "c1ccc(/N=N\Nc2ccc(-c3nc4ccccc4o3)cc2)nc1"
Given back: 61.1 µM

Just for reference, PubChem BioAssay (NCI) is where these values come from.
